The following compounds are shown together with reported growth values.
system: HL-60(TB) leukemia; assay: NCI-60 one-dose screen, 48 h (100 = growth as untreated, 0 = no growth, -100 = all killed); conditions: 10 µM unless noted
The panel holds about 83,000 compounds, 20% with a hit somewhere; the sample as a whole holds those more often. Active and inactive are the calls of the source. The calls were made as follows: active = growth percent below 10; inactive = the rest.
READOUT TYPE: growth

{"COMPOUND": "CC1(C)CC[C@]2(C(=O)Nc3ccc(F)cc3)CC[C@]3(C)C(=CCC4[C@@]5(C)C[C@@H](O)[C@H](O)[C@@](C)(CO)C5CC[C@]43C)C2C1 (stereo partly drawn)", "READOUT TYPE": "growth", "RESULT": "-11.7% (active)"}
{"COMPOUND": "O=C1CCC(N2Cc3cc(NC(=O)COc4ccccc4)ccc3C2=O)C(=O)N1 (stereo not drawn)", "READOUT TYPE": "growth", "RESULT": "6.3% (active)"}
{"COMPOUND": "O=C(O)CC1S/C(=N/N=C/c2nc3ccccc3s2)NC1=O (stereo not drawn)", "READOUT TYPE": "growth", "RESULT": "98.4% (inactive)"}
{"COMPOUND": "CCOC(=O)N/C(=C1/OCCN1C)[P+](c1ccccc1)(c1ccccc1)c1ccccc1", "READOUT TYPE": "growth", "RESULT": "29.9% (inactive)"}
{"COMPOUND": "Cc1ccc2c(c1)C(=O)/C(=C/c1ccc([N+](=O)[O-])cc1)S2", "READOUT TYPE": "growth", "RESULT": "107% (inactive)"}
{"COMPOUND": "Nc1nc(Nc2ccc(Cl)cc2)nn1Cc1cccc(Br)c1", "READOUT TYPE": "growth", "RESULT": "34.5% (inactive)"}
{"COMPOUND": "COc1cc2c3c(n(CCCN4CCOCC4)c(=O)c2cc1OC)-c1nc2c(cc1C3=O)OCO2", "READOUT TYPE": "growth", "RESULT": "65.2% (inactive)"}
{"COMPOUND": "O=C(OCCOCCO)N(c1cccc(Br)c1)c1nc(SCCN2CCOCC2)nc2c1cnn2CC(Cl)c1ccc(Br)cc1 (stereo not drawn)", "READOUT TYPE": "growth", "RESULT": "-46.8% (active)"}
{"COMPOUND": "COc1ccc2[nH]c(=O)cc(-n3ncc(C(=O)/C=C/c4cc(OC)c(OC)c(OC)c4)c3C)c2c1", "READOUT TYPE": "growth", "RESULT": "-33.4% (active)"}
{"COMPOUND": "O=C1Nc2ccc(F)cc2/C1=C/C(=O)c1cc2ccccc2oc1=O", "READOUT TYPE": "growth", "RESULT": "85.6% (inactive)"}
{"COMPOUND": "COc1cc2oc(-c3cccc(C(=O)Nc4ccc(Cl)cc4)c3)cc(=O)c2c(OCCNC(=O)CNC(=O)OC(C)(C)C)c1OC", "READOUT TYPE": "growth", "RESULT": "55.5% (inactive)"}
{"COMPOUND": "O/N=C(\\CSc1nnc(-c2c[nH]c3ccccc23)n1-c1ccccc1)c1ccc(Br)cc1", "READOUT TYPE": "growth", "RESULT": "-36.3% (active)"}
{"COMPOUND": "CCCn1c(NC(=O)c2cccc(C(N)=O)c2)nc2ccc(CN3CCCCC3)cc21", "READOUT TYPE": "growth", "RESULT": "72.9% (inactive)"}
{"COMPOUND": "CC(C)(C)OC(=O)N1C/C(=C\\c2ccc(F)cc2)C(=O)/C(=C/c2ccc(F)cc2)C1", "READOUT TYPE": "growth", "RESULT": "-6.78% (active)"}
{"COMPOUND": "Cc1ccc(CSc2nc(-c3ccc(F)cc3)c(C#N)c(=O)[nH]2)cc1", "READOUT TYPE": "growth", "RESULT": "56.6% (inactive)"}
{"COMPOUND": "CCCCSc1nc(Nc2ccc(/C(C)=N/NC(N)=S)cc2)c(C#N)c(-c2ccc(F)cc2)n1", "READOUT TYPE": "growth", "RESULT": "90.7% (inactive)"}
{"COMPOUND": "O=C(NO)c1ccc(-c2nc3ccc4[nH]ncc4c3c3c2CCCC3)cc1", "READOUT TYPE": "growth", "RESULT": "-18.7% (active)"}
{"COMPOUND": "O=C(c1ccc(Cl)cc1)c1ccc(OCCCN2CCN(c3ccncc3)CC2)cc1", "READOUT TYPE": "growth", "RESULT": "-3.36% (active)"}
{"COMPOUND": "Clc1cccc(N/N=C/c2c[nH]c3ccc(Br)cc23)n1", "READOUT TYPE": "growth", "RESULT": "5.14% (active)"}
{"COMPOUND": "COc1ccc2[nH]cc(/C=N/Nc3cccc(Cl)n3)c2c1", "READOUT TYPE": "growth", "RESULT": "23.7% (inactive)"}
{"COMPOUND": "COc1cc2cc(C(=O)N3C[C@@H](CCl)c4c3cc(OC(=O)N3CCN(C)[C@@H]5CSSC[C@@H]53)c3ccccc43)[nH]c2c(OC)c1OC", "READOUT TYPE": "growth", "RESULT": "1.55% (active)"}
{"COMPOUND": "C=C1CC[C@@H]2[C@]3(C)COC(c4cn[nH]c4-c4cccc(Cl)c4)O[C@@H]3CC[C@@]2(C)[C@@H]1C/C=C1/C(=O)OCC1O (stereo partly drawn)", "READOUT TYPE": "growth", "RESULT": "-15.1% (active)"}
{"COMPOUND": "COc1ccc(NC(=O)Cn2c(/C=C/c3cccc(OC)c3)nc3ccccc3c2=O)cc1", "READOUT TYPE": "growth", "RESULT": "94.6% (inactive)"}
